Parameter: self-cleavage kobs at 10000 uM GlcN6P. Scope: all listed entries.
B1: glmS ribozyme (parent)
chain: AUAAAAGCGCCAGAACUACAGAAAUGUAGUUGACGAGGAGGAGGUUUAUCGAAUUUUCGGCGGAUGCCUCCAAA

variants of: B1; experiment: self-cleavage kobs at 10000 uM GlcN6P; higher = faster cleavage; RNA array; conditions: with glucosamine-6-phosphate
Variants at the floor of the assay were thinned out.
Respond numerically; units are s⁻¹ and should not be typed.

INSERT INTO assay_data (mutant_id, value_observed) VALUES
  ('U47G C68G', '7.41e-05'),
  ('G13C A15G C58A', 0.000154),
  ('U30A C67G', 0.00015),
  ('U30G G41U', 0.000154),
  ('A12C C68U', 0.000494);

Data request: Fill in self-cleavage kobs at 10000 uM GlcN6P for record C50G C61A A64U
Data returned: 0.000113

Data request: Fill in self-cleavage kobs at 10000 uM GlcN6P for record C11G A12C
Data returned: 0.00011

Data request: Fill in self-cleavage kobs at 10000 uM GlcN6P for record G13C U54A
Data returned: 0.000108

Data request: Fill in self-cleavage kobs at 10000 uM GlcN6P for record G13A U55G C71G
Data returned: 4.08e-05

Data request: Fill in self-cleavage kobs at 10000 uM GlcN6P for record G44C U65G C67U
Data returned: 0.000247

Data request: Fill in self-cleavage kobs at 10000 uM GlcN6P for record G29A G40A
Data returned: 0.000353

Data request: Fill in self-cleavage kobs at 10000 uM GlcN6P for record A5U A39C U65G C68U
Data returned: 4.87e-05

Data request: Fill in self-cleavage kobs at 10000 uM GlcN6P for record G44U U65G
Data returned: 0.000152

Data request: Fill in self-cleavage kobs at 10000 uM GlcN6P for record "U57A"
Data returned: 0.000311

Data request: Fill in self-cleavage kobs at 10000 uM GlcN6P for record A15U A39G U57C
Data returned: 6.65e-05

Data request: Fill in self-cleavage kobs at 10000 uM GlcN6P for record C50G G62U
Data returned: 3.35e-05

Reference source for all entries: the supplement of paper PMC7125110
